Reported Ki values for the following compounds.
# EXPERIMENTAL TARGET: Carbonic anhydrase 2 (Homo sapiens)
# MEASUREMENT NOTES: Inhibition of recombinant human carbonic anhydrase 2 incubated for 15 mins prior to testing measured for 10 to 100 secs by phenol red dye based stopped-flow CO2 hydration assay

{"SMI": "COc1ccc(C(=O)CSc2nccc(Nc3ccc(S(=O)(=O)Nc4ncccn4)cc3)n2)cc1", "Ki": "> 100 µM"}

Query :: Using the record for COc1ccc(C(=O)CSc2nccc(Nc3ccc(S(=O)(=O)Nc4ccccn4)cc3)n2)cc1 , report its Ki.
Result :: > 100 µM

---

# EXPERIMENTAL TARGET: Carbonic anhydrase 9 (Homo sapiens, UniProt Q16790)
Lab note: cut-off is 0.8 µM. Strictly less in Ki is Condition met. Exactly 0.8 µM or more is Condition not met.

As a guide, the following entries are already answered.
{"SMI": "NS(=O)(=O)c1ccc(Nc2ccnc(SCC(=O)c3ccc(Br)cc3)n2)cc1", "GROUP": "Condition not met"}
{"SMI": "O=C(CSc1nccc(Nc2ccc(S(=O)(=O)Nc3cncs3)cc2)n1)c1ccc(Cl)cc1", "GROUP": "Condition met"}
{"SMI": "NS(=O)(=O)c1ccc(Nc2ccnc(SCC(=O)c3ccc(C(F)(F)F)cc3)n2)cc1", "GROUP": "Condition not met"}
{"SMI": "O=C(CSc1nccc(Nc2ccc(S(=O)(=O)Nc3ccccn3)cc2)n1)c1ccc(Cl)cc1", "GROUP": "Condition not met"}
{"SMI": "COc1ccc(C(=O)CSc2nccc(Nc3ccc(S(N)(=O)=O)cc3)n2)cc1", "GROUP": "Condition not met"}

Query :: Please indicate whether the reported Ki of COc1ccc(C(=O)CSc2nccc(Nc3ccc(S(=O)(=O)Nc4cc(C)on4)cc3)n2)cc1 is strictly below 0.8 µM.
Result :: Condition not met

Query :: Please indicate whether the reported Ki of NS(=O)(=O)c1ccc(Nc2ccnc(SCC(=O)c3ccc(-c4ccccc4)cc3)n2)cc1 is strictly below 0.8 µM.
Result :: Condition met

Query :: Please indicate whether the reported Ki of O=C(CSc1nccc(Nc2ccc(S(=O)(=O)Nc3cncs3)cc2)n1)c1ccccc1 is strictly below 0.8 µM.
Result :: Condition not met

---

# EXPERIMENTAL TARGET: Carbonic anhydrase 12 (Homo sapiens)
# Sequence (O43570 whole entry): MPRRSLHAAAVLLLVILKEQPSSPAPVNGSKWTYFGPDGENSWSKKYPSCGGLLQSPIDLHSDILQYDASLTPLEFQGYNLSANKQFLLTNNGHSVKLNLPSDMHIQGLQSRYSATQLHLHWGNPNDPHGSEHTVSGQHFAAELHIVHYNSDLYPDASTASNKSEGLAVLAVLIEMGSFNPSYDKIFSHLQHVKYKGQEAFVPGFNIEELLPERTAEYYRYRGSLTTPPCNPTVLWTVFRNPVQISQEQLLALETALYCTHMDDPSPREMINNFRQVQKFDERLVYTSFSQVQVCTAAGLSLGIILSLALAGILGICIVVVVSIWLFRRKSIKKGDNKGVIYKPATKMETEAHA
MEASURED QUANTITY: Ki

Query :: Query Ki on Carbonic anhydrase 12 (Homo sapiens) for Cc1cc(NS(=O)(=O)c2ccc(Nc3ccnc(SCC(=O)c4ccc(F)cc4)n3)cc2)no1
Result :: > 100 µM
